Hey, just so you know, these numbers are from the NTF2 design screens of Basanta et al. (2020).

Assay: protease stability score; higher = more stable; yeast display proteolysis, trypsin and chymotrypsin;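 also: log10 excess protease needed over predicted unfolded state with 0 meaning unfolded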
# protease stability score >= 0.5 gives class 1, anything below gives class 0

[[record]]
entry_sequence = "DSTQVRILEEMNRAIERGDPERVYQLADPNARFQIGDTQIHGMESFMKHVEETVRHMRISIRSLHADDEGDKMKVTFTFVVNRDGQPRRRVVTATAHANGDQVKYLEWRDDE"
assigned_category = "class 0"

[[record]]
entry_sequence = "DEEHAEELMKRWMEVVKKGDKDTVKELYKPNGTWRNVDEEHQGVEQVQKMMKKIQDVGVEFQVRKAKVEGDRVTVVYDVRAGDVEVTFTVQMDVDGGRVELVQVKVDEDAKKAVKTG"
assigned_category = "class 0"

[[record]]
entry_sequence = "DEDQAKTIEELWRTNDFDTLATQADKDVHNHVGDKKIHGRTQHTQAQERIRRAVDHFDVKRVNIQGNKVDIDVVMEVNGKNVHMTVVITVHNGKIKHMSMRVRDEEVKKLFEEMEQ"
assigned_category = "class 1"

[[record]]
entry_sequence = "DEELLKEWETLVEDNNEQDLSKMADEDARVNVGDKHYHGRENVEKFITTLAQRIDRIDIKTVDNDGEKVRIDMIAKFNGHQLRVVLEMQAHNGRVKVINARATNEDQEKLWKDLVD"
assigned_category = "class 1"

[[record]]
entry_sequence = "DEKLIKLLKSLLKIQESGDPDKLRTMADPNVRFNIGDKVFHGMEEYATHVVELRKQAHIRIERLSNSDSNGVVNADFTRVNNHNGKPDSRRQEVTYVAHGDRIKEVNNQDHQ"
assigned_category = "class 0"

[[record]]
entry_sequence = "DEEIVKLVEEQARAEKTNDDKRLNELFDKDAKVDVGDKSYHGTEELHKLVHRTMHRMRFDLRTYRIDHEGDRAVMNYNLVFDINGRPDHYHVIFRAHMHNGRIKHQSVSVDPEQKKRFDS"
assigned_category = "class 0"

[[record]]
entry_sequence = "DEEAQKTAEDFLRAFQDGNHEQLLKLMDKDAQAQYGDQRLHGREKLRQHIYELLKNIRLEYSIDDVKVDGNNVRIHMQYEAEVNGQPVKDKAKVDIVFHNGKIKTFMVHFSEEYVQTVRS"
assigned_category = "class 1"

[[record]]
entry_sequence = "DEEELMNRFWETMERIMEKGDEDTMRKQVDPNAKAEYGDKTVHGRHQFAKFWIEQARRADHIKFDIKSIDVKPPTIVVRLTVKFNVNGTNHKRDISIVFKVHNGRIVLHNAHEN"
assigned_category = "class 1"

[[record]]
entry_sequence = "DHQVVRSFMDVLETGDWDKLKDLVDPNAKMFYGNKDLTGRDAQTHFSEVMKRRVDEIKIDSYDMKGDSAWADFVLVFNGVEIRFILRVQFHNGNVISMRFEVTDPKQKTQLDRAAS"
assigned_category = "class 1"

[[record]]
entry_sequence = "DDRIKELADRFMNALQTNDPDKINNLVDPNAKITVGDKSVRGDEQINRTMDQRKRELRQDYDVRSVEVHGNTAIIDVHVTFEHNGEPHKEKQTIIIHVKNGRAVDIKITRHS"
assigned_category = "class 0"

[[record]]
entry_sequence = "DDRVLHEMVKVMETGDFEKFARLADPNATIEYGDKKIHGREDAEKFATKIKQRVDHVQIKTYSVKGDSARIHFELNVNGSRIDMVLVLQVKNGRLRRASFEFRDREDSKEFVKRVH"
assigned_category = "class 0"

[[record]]
entry_sequence = "DETEHAKRLAEEFVRNVETGDESRLVELADPNAKFEVGDTTVHGMEDYAHNMHKRRNEADHFDFKVKSVHVSNGNIRVDIDYRVNHNGKVEKQRMVIYMTKHGDKYRIKKIEVS"
assigned_category = "class 0"

[[record]]
entry_sequence = "DDSLEKELEDIMRTGNFEELVKNADKDARAQYGNRTYHGREDAKEAAHQFRKHVDSIQIDSIHRHNGHMEVDMQVNINGRNVRATMTIEAHNGRVKQFRVEVTDEEFHKTLHRLLE"
assigned_category = "class 1"

[[record]]
entry_sequence = "DSDLVRKMKKFEENRRTGNEHEVDKMIDPNAKLQVGDKTIHGRERQRDYMRELKNSARLDLKIDRVHDQPGRVVATFILKVNINGRPDTIRVKLVIQWHNGEIQRAELRVPEEWMDRFKQ"
assigned_category = "class 1"

[[record]]
entry_sequence = "EEQAQENLENLIRAIEHGDHKTAKELMDPNVKFHYGDKQYHGRERVTDFIRTVHEQMDVEIESFDLKLENGRAKAKMTAVYDVNGKPVKISVTYVATVHNGKVKHLQRRVDPSQQREVKG"
assigned_category = "class 1"

[[record]]
entry_sequence = "EEENFNRANEFMKAVETNDPDKLKHNADENVQITYGDKSYQGRESWAKDLQRKLKHMRWRYEFKSYHDTGDSVDVSLRVMATVNGKPRDFHLRMIIHFKNGKIKNIELRLDPDELDKLES"
assigned_category = "class 1"

[[record]]
entry_sequence = "DEQKTRQLEEVKKQLEHGNEREAKKNFDENVHINVGDKQIHGMHDAAREMATSWTQIRNEMTITRVHVRGDKIEIRASMVQNTNGRPRKAKVHIDVRINNGKIKRVTVKYDG"
assigned_category = "class 0"

[[record]]
entry_sequence = "DERNQRNLEKMLKAQERGNPDLLEELVDKNVKIEVGDKSVHGREELHRQQDRRRKQATLRYDDLRMKVSGNKVRVDMKFQVNHDGKPEKATADATYEFDNGKLKHVSVRVRQ"
assigned_category = "class 0"

[[record]]
entry_sequence = "DEKQVHKMARQLVKALEHNDPQKVADLVDENVRASIGDTEYHGREHVKKAIKQMVDSIDHMRVRTVTAHNGTIDIDFQVVVNGRTERYQMRAEVHNGRIQSLRVDKR"
assigned_category = "class 1"

[[record]]
entry_sequence = "DEDERAEKMARTAQEILETGDEEKAKRLFPPNARAKVGDRTYHGREDIVKHLKELWDRADHVRVEIKSFRVRGDNVHVVMTLVFTYNGKNETQQLTMIFVHVNGRQVAQDMKIG"
assigned_category = "class 1"

[[record]]
entry_sequence = "DEEEKKKKAEHAAKAFVTGDEERMNQLASPDVTATVGDQRVHGRDDMNKLLQEFKRQADHVELKSFRNDENHVTIHVRVNHNGKMDKFVVNIRMHNGQVKIIHQTSS"
assigned_category = "class 0"

[[record]]
entry_sequence = "DEEENKDVATTFVKAVEQGDPDKISHLFDENARAQIGDKEYHGREDLMRMAQEWRDRYDHIEIQDYKVHGNKVTAHFVMQHNGKRERRVMTAEWRNGQIHSMQVHSS"
assigned_category = "class 1"


====

Experiment: protease stability score; higher = more stable; yeast display proteolysis, trypsin and chymotrypsin;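 also: log10 excess protease needed over predicted unfolded state with 0 meaning unfolded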
property_label: protease stability score

[[record]]
entry_sequence = "DDEVVKEVNNALKTNDFKSMVDLADKNARIRVGNKTYRGREEVERFQTILHQRADHVQFRKIHVEGDTAVVDMVVVVNGHKLKYTVKIRVHNGKITSLRMQFTDESDERVMSKVLG"
reading = 0.8

[[record]]
entry_sequence = "DEHEMKKVADQIVDILRTGDQDRFRDLADPNVRVSVGDKTVHGRHQAQQQVKRLKDQVDHVQLKDMKIHGNTVVVKAHVEINGNTTDRDVKFELHNGRVSHLTIDPEAQKVMDT"
reading = 0.273

[[record]]
entry_sequence = "DEEELREMVKKWLEVVQKGDQKKAVEMYKPNGEWRMIDEEKQGQEDVEKMLRKAQEDGVEFQTRKAKVEGNKAEMHYDMKLGDETVTFTVQLVAHGGRIDRVKVKVTEEAKKLLTKG"
reading = 0.221

[[record]]
entry_sequence = "DETRQAKDMVSELRKALKQGDEDKAMKLADPNVRLDVGEKDLHGRERLKEWVTEIRDKYDRVDLKVTHVHVRGNKIVVHAEVVMRRNGHQKTMTLTIVVRLQGDHLHIVEITQR"
reading = 0.803

[[record]]
entry_sequence = "DDDQRRKFERFITAVRTGSKEDLNKLIDPNAKINVGNHRYHGMEEFAKQVVTHNKDLRFHVRFKELDFSGNRVRVSYEMTMTVNGKPYQFTARVEFDVHDGSVKSVREQISEDVEQRQRN"
reading = 0.423

[[record]]
entry_sequence = "DDQNLRSAVRRLVDGNEERAKDTLDENARVEVGEYNFHGREEAQKAFQTMQDRIDHINVKSYKYQGDKASVDMVVEFNGRSVKFVVVVRVHNGHLVNARVQFTDEHQHKRAKEMID"
reading = -0.104

[[record]]
entry_sequence = "DSEKNEALQRAVEIWNSNDPDKLKKQFDPNARHTYGDTVVHGRENLARRLEQLKRESRLTFQVTHLDVHNGKVTADVTIVEEHNGKPDTKRMDVQANVQNGRFKSVYVHESS"
reading = -0.003

[[record]]
entry_sequence = "DNDRVRKAHKLMRVIETGDPDKVNEYVDPNVHVEYGDKTIHGREELKKFIEKERHEMRVELKRVSADATGNKVDIKVHRVLDKNGKPETNNVRIIIVWDGNKIKSVSFQKDK"
reading = 0.849

[[record]]
entry_sequence = "DEESDKKFLEKIRKLFEDGDPDQFRKMFPPDATAVIGDKSVHGNQVEQAVNTFEKNRADHVRIDSFEVSNGRVDIDVVVNHNGEERRIKIVFIARNGRLEHMRFVST"
reading = 0.215

[[record]]
entry_sequence = "DEDDLRRRANEVAEVLHDNDEESMKSLVDPNADIEIGDKRLHGRDDMEKWMQERKRRVDHLTLHSFNVHNGRVDIDARVEVNGQQERYRMVVEFHNGVAKHINFTST"
reading = 0.569

[[record]]
entry_sequence = "DEEKNEEWAEQAQHLLETGDPDKFRTMIDENAKADVGDKRLHGRETIVEEIDRMTERVDHIQITRVSAKGNRVRVKMVLRVNGVNLDVVMVFNYHNGRIKSVQVEYRNREQQKRFES"
reading = 0.388

